Where these numbers come from: paper PMC6858373

biological target: FGF14:Nav1.6 C-tail complex (Homo sapiens, UniProt Q92915+Q9UQD0); construct: polymerase chain reaction (PCR) amplification of the FGF14 open reading frame (nt 1–855); C-terminal fragment of Nav1.6 (amino acids 1763–1976) fused with CD4ΔC-tail (amino acids 1–395); expressed in transfected cells; assay: Split-luciferase complementation assay (LCA) in Clone V double stable HEK293 cells; type: cell-based; settings: average of Set 1 and Set 2; normalized to 0.3% DMSO controls
Sequence (Q92915 1-252 isoform Q92915-2): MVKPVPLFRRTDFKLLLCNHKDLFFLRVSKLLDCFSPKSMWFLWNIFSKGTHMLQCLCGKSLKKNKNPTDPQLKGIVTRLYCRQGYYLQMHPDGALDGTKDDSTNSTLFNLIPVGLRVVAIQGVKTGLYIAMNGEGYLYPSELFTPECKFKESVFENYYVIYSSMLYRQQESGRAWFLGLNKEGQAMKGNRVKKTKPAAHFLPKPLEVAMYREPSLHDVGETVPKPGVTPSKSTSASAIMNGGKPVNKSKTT
Sequence (Q9UQD0 1763-1976 limits assumed): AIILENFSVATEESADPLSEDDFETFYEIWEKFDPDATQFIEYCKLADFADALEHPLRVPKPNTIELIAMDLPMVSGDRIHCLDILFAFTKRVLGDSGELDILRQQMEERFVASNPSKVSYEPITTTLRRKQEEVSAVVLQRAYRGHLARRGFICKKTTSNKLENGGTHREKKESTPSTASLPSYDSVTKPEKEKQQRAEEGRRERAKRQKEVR
Met means recorded Split Luciferase Assay %Lum Avg is 90% or above; Not met means it is below 90%.

COMPOUND | LABEL_CLASS
O=C1NC(=O)c2c1c1c3ccccc3n3c1c1c2c2ccccc2n1C1CCC3O1 | Not met
NS(=O)(=O)c1nn2cc(-c3ccccc3)nc2s1 | Met
Cc1cc(C(C)Nc2ccccc2)c2nc(N3CCOCC3)cc(=O)n2c1 (stereo not drawn) | Met
Oc1cccc(-c2nc(N3CCOCC3)c3oc4ncccc4c3n2)c1 | Met
O=C(O)CCCc1ccc(N(CCCl)CCCl)cc1 [Chlorambucil, reference compound] | Met
CC(C)[C@H](NS(=O)(=O)c1ccc(-c2ccc(Br)cc2)cc1)C(=O)O | Met
Nc1ccccc1NC(=O)c1ccc(CNC(=O)OCc2cccnc2)cc1 | Not met

====

target: FGF14:Nav1.6 C-tail complex (Homo sapiens, UniProt Q92915+Q9UQD0); construct: polymerase chain reaction (PCR) amplification of the FGF14 open reading frame (nt 1–855); C-terminal fragment of Nav1.6 (amino acids 1763–1976) fused with CD4ΔC-tail (amino acids 1–395); expressed in transfected cells; experiment: Split-luciferase complementation assay (LCA) in Clone V double stable HEK293 cells; type: cell-based; details: CC_NCI screening; LCA, biological replicate Set 2; normalized to on-plate 0.3% DMSO controls
Where a name gives a salt, the structure may show the parent alone.
Checkbox rule: Split Luciferase Assay Z-score Set 2 lower than -0.6 = 1.0; Split Luciferase Assay Z-score Set 2 not lower than -0.6 = 0.0.

COMPOUND | LABEL_CLASS
Nc1nc2[nH]cc(CCc3ccc(C(=O)N[C@@H](CCC(=O)O)C(=O)O)cc3)c2c(=O)[nH]1 | 0.0
COC1=CC(c2cc3ccccc3[nH]2)=N/C1=C\c1[nH]c(C)cc1C | 1.0
CC(=O)Nc1cccc(-n2c(=O)n(C3CC3)c(=O)c3c(Nc4ccc(I)cc4F)n(C)c(=O)c(C)c32)c1 | 1.0
CNC(=O)c1cc(Oc2ccc(NC(=O)Nc3ccc(Cl)c(C(F)(F)F)c3)c(F)c2)ccn1 | 1.0
CCCCCCCCCCCCSc1nc2c([nH]1)c(=O)n(C)c(=O)n2C | 0.0
COc1ccc2c(c1)CC[C@@H]1[C@@H]2CC[C@]2(C)[C@@H](NCCCCCCN3C(=O)C=CC3=O)CC[C@@H]12 | 0.0
Nc1nc(Cl)nc2c1ncn2[C@H]1C[C@H](O)[C@@H](CO)O1 | 0.0
CO[C@@H]1[C@H](N(C)C(=O)c2ccccc2)C[C@H]2O[C@]1(C)n1c3ccccc3c3c4c(c5c6ccccc6n2c5c31)C(=O)NC4 | 1.0
Cc1ccc(Nc2nccc(N(C)c3ccc4c(C)n(C)nc4c3)n2)cc1S(N)(=O)=O.Cl [Pazopanib hydrochloride] | 1.0
COc1cccc2c1C(=O)c1c(O)c3c(c(O)c1C2=O)C[C@@](O)(C(C)=O)C[C@@H]3O[C@H]1C[C@H](N)[C@H](O)[C@H](C)O1 [Daunorubicin hydrochloride] | 1.0
O=[As]O[As]=O (stereo not shown) [Arsenic trioxide] | 1.0
CC1=C(/C=C/C(C)=C/C=C/C(C)=C/C(=O)O)C(C)(C)CCC1 | 0.0
Cc1cc2c(F)c(Oc3ncnn4cc(OC[C@@H](C)O)c(C)c34)ccc2[nH]1 | 1.0
COc1cc2ncnc(Nc3ccc(F)c(Cl)c3)c2cc1OCCCN1CCOCC1 | 0.0
Cc1cc(Nc2ncc3cc(-c4c(Cl)cccc4Cl)c(=O)n(C)c3n2)ccc1F | 0.0
